# protocol.description: Solubility of Compound 1 in oils, surfactants and co-surfactants
# Format: physicochemical
# measurement.setup: oil or lipid; in Cottonseed Oil, RT
attribute.measured: solubility (mg/mL)
Give bare numbers, in mg/mL.

Query: solubility; subject: CCCCCCCCCC1=C(C)C(=O)C(C)=C(C)C1=O [Compound 1]
Reply: 112

----------
# protocol.description: Solubility of Compound 1 in oils, surfactants and co-surfactants
# Type: physicochemical
# measurement.setup: organic solvent or mixture; in Gelucire 44/14, 45° C.
attribute.measured: solubility (mg/mL)
Give bare numbers, in mg/mL.

Query: Return reported solubility; argument: CCCCCCCCCC1=C(C)C(=O)C(C)=C(C)C1=O
Reply: 269

----------
# protocol.description: Solubility of Compound 1 in oils, surfactants and co-surfactants
# Assay type: physicochemical
# measurement.setup: oil or lipid; in Corn Oil, RT
attribute.measured: solubility
Respond with a number, then the unit of measure.

Query: I have this compound here, CCCCCCCCCC1=C(C)C(=O)C(C)=C(C)C1=O , and I need its recorded solubility.
Reply: 115 mg/mL

----------
# protocol.description: Solubility of Compound 1 in oils, surfactants and co-surfactants
# Type: physicochemical
# measurement.setup: organic solvent or mixture; in Labrasol, RT
attribute.measured: solubility (mg/mL)
Answers are plain numbers, in mg/mL.

Query: Fill in the blank: the reported solubility of CCCCCCCCCC1=C(C)C(=O)C(C)=C(C)C1=O is ____.
Reply: 35.7

----------
# protocol.description: Solubility of Compound 1 in oils, surfactants and co-surfactants
# Assay type: physicochemical
# measurement.setup: oil or lipid; in Soybean Oil, RT
attribute.measured: solubility (mg/mL)
Answers are plain numbers, in mg/mL.

Query: # lookup: solubility of CCCCCCCCCC1=C(C)C(=O)C(C)=C(C)C1=O
Reply: 111

----------
# protocol.description: Solubility of Compound 1 in oils, surfactants and co-surfactants
# Format: physicochemical
# measurement.setup: oil or lipid; in Olive oil, RT
attribute.measured: solubility

Query: Can you look up the measured solubility of CCCCCCCCCC1=C(C)C(=O)C(C)=C(C)C1=O for me?
Reply: 135 mg/mL

----------
# protocol.description: Solubility of Compound 1 in oils, surfactants and co-surfactants
# Format: physicochemical
# measurement.setup: organic solvent or mixture; in Tween 60
attribute.measured: solubility

Query: Any idea what solubility was measured for CCCCCCCCCC1=C(C)C(=O)C(C)=C(C)C1=O [Compound 1] ?
Reply: 50 to 100 mg/mL

----------
# protocol.description: Solubility of Compound 1 in oils, surfactants and co-surfactants
# Assay type: physicochemical
# measurement.setup: oil or lipid; in Lauroglycol FCC, RT
attribute.measured: solubility (mg/mL)
Numbers only, in mg/mL.

Query: I'd like to know its solubility. The molecule in question is CCCCCCCCCC1=C(C)C(=O)C(C)=C(C)C1=O [Compound 1]
Reply: 160

----------
# protocol.description: Solubility of Compound 1 in oils, surfactants and co-surfactants
# Type: physicochemical
# measurement.setup: oil or lipid; in Labrafac PG, RT
attribute.measured: solubility (mg/mL)
One number for each entry, in mg/mL.

Query: Which solubility is listed for CCCCCCCCCC1=C(C)C(=O)C(C)=C(C)C1=O [Compound 1] ?
Reply: 222

----------
# protocol.description: Solubility of Compound 1 in oils, surfactants and co-surfactants
# Type: physicochemical
# measurement.setup: oil or lipid; in Sesame oil, RT
attribute.measured: solubility (mg/mL)
Answers are plain numbers, in mg/mL.

Query: Return reported solubility; argument: CCCCCCCCCC1=C(C)C(=O)C(C)=C(C)C1=O
Reply: 139

----------
# protocol.description: Solubility of Compound 1 in oils, surfactants and co-surfactants
# Format: physicochemical
# measurement.setup: oil or lipid; in Capryol 90, RT
attribute.measured: solubility (mg/mL)
Answers are plain numbers, in mg/mL.

Query: // returns reported solubility for input CCCCCCCCCC1=C(C)C(=O)C(C)=C(C)C1=O [Compound 1]
Reply: 125
